Read-out record for TrkA (Homo sapiens (Human), UniProt P04629): log10 of IC50
Where a name gives a salt, the structure may show the parent alone.
Hi team, quick reminder: these entries are log10 of IC50 (nM).

1) COc1ccc(COc2ccc(Cn3c(N)nc4cc(-c5c(C)nn(C)c5C)cnc43)cc2OC)cn1 ... 1.15
2) COc1cc([C@H](C)n2c(N)nc3cc(-c4cnn(C)c4)cnc32)ccc1OCc1ccc(C(F)(F)F)cc1 (single isomer, unassigned) ... -0.52
3) COc1ccc(COc2ccc(Cn3c(N)nc4cc(-c5cnn(CCN6CCOCC6)c5)ccc43)cc2OC)cc1 ... 0.48
4) COc1ccc(C(C)Oc2ccc(Cn3cnc4cc(-c5ccnc(F)c5)cnc43)cc2OC)cn1 (stereo not drawn) [Ex. 3-58-3, formate] ... 2.33
5) COc1ccc(COc2ccc(Cn3c(N)nc4cc(-c5ccc(P(C)(C)=O)nc5)ccc43)cc2OC)cc1 ... 0.85

# return log10 of IC50 for each item in the list
1. COc1cc(C(C)n2c(N)nc3cc(C#CCCO)cnc32)ccc1OCc1ccc(C(F)(F)F)nc1 (stereo not drawn)
2. COc1ccc(COc2ccc(Cn3c(N)nc4cc(-c5cnn(C)c5)cnc43)cc2OC)cn1
3. COc1ccc(COc2ccc(Cn3cnc4cc(N5CC6(CCNCC6)C5)ccc43)cc2OC)cn1
4. COc1ccc(C(C)Oc2ccc(Cn3cnc4cc(-c5cnn(C)c5)cnc43)cc2OC)cn1 (stereo not drawn) [Ex. 3-57, formate]
5. COc1cc(Cn2c(N)nc3cc(-c4cnn(C)c4)cnc32)ccc1OCc1ccc(C(F)(F)F)nc1
6. COc1cc(Cn2c(N)nc3cc(-c4cnn(C)c4)cnc32)ccc1OCc1ccc(CC(F)(F)F)cc1
7. COc1ccc(COc2ccc(C(C)n3c(N)nc4cc(-c5cnn(C)c5)ccc43)cc2OC)cn1 (stereo not drawn)
8. COc1ccc(COc2ccc(Cn3cnc4cc(N5CCC(C(C)(C)N)CC5)cnc43)cc2OC)cn1

Solution:
[0.00, -0.22, 2.13, 1.54, -0.70, -0.70, 0.48, 1.73]

Batch request: log10 of IC50 per item, same order as input.
1. COc1ccc(COc2ccc(Cn3cnc4cc(-c5noc(C6CCNCC6)n5)ccc43)cc2OC)cn1
2. COc1ccc(COc2ccc(C(C)n3c(N)nc4cc(-c5ccc(F)cc5)ccc43)cc2OC)cn1 (stereo not drawn)

Solution:
[2.49, 1.93]

====

Consider compounds characterized by their pIC50 with TrkA (Homo sapiens (Human)).
Answers are plain numbers, as −log10 of the molar value.

1) COc1ccc(COc2ccc(Cn3cnc4cc(N5CCN(C6CC6)CC5)cnc43)cc2OC)cn1 ... 6.95
2) COc1ccc(COc2ccc(Cn3c(N)nc4cc(-c5cnn(C)c5)ccc43)cc2OC)cc1 ... 9.00
3) COc1ccc(COc2ccc(Cn3c(N)nc4cc(C#CC5CCCCC5)cnc43)cc2OC)cn1 ... 7.19

Turning now to a further record.
Problem: Sample COc1ccc(C(Oc2ccc(Cn3c(N)nc4cc(-c5cnn(C)c5)cnc43)cc2OC)C2CC2)cn1 (stereo not shown) — what was its pIC50?
Solution: 7.24

====

Molecular target: UniProt:Q16620
Assay: TrkB activity, off-chip mobility shift assay (LabChip 3000)
Format: biochemical
Conditions: 70 μM ATP (ATP Km); n/d = none detected
pIC50: −log10 of the molar value. Counter-ions that a name gives are not always drawn.
Mark Fulfilled for reported pIC50 of 7 or greater; mark Not fulfilled for anything smaller.

Previously resolved entries follow.
1) COc1cc(Cn2c(N)nc3cc(-c4cnn(C)c4)cnc32)ccc1OCc1ccc(C(C)C)nc1 ... Fulfilled
2) COc1ccc(COc2ccc(Cn3c(N)nc4cc(-c5ccc(P(C)(C)=O)nc5)cnc43)cc2OC)cc1 ... Fulfilled

Problem: Check this compound for pIC50 at or above 7: COc1ccc(COc2ccc(Cn3cnc4cc(C5=CC6(O)CCCN5C6)ccc43)cc2OC)cn1 (stereo not shown)
Solution: Not fulfilled

Problem: Now this one: COc1ccc(COc2ccc(Cn3c(N)nc4cc(N5CCN(C)CC5=O)ccc43)cc2OC)cn1
Solution: Not fulfilled

Problem: // next record COc1ccc(COc2ccc(Cn3c(N)nc4cc(-c5cncnc5)ccc43)cc2OC)cc1
Solution: Fulfilled

Problem: Same question for COc1ccc(C(C)Oc2ccc(Cn3cnc4cc(-c5cnn(C)c5)cnc43)cc2OC)cn1 (stereo not shown) [Ex. 3-57, formate] please.
Solution: Fulfilled

====

Target: TrkA (Homo sapiens (Human), UniProt P04629)
Sequence (P04629 33-796): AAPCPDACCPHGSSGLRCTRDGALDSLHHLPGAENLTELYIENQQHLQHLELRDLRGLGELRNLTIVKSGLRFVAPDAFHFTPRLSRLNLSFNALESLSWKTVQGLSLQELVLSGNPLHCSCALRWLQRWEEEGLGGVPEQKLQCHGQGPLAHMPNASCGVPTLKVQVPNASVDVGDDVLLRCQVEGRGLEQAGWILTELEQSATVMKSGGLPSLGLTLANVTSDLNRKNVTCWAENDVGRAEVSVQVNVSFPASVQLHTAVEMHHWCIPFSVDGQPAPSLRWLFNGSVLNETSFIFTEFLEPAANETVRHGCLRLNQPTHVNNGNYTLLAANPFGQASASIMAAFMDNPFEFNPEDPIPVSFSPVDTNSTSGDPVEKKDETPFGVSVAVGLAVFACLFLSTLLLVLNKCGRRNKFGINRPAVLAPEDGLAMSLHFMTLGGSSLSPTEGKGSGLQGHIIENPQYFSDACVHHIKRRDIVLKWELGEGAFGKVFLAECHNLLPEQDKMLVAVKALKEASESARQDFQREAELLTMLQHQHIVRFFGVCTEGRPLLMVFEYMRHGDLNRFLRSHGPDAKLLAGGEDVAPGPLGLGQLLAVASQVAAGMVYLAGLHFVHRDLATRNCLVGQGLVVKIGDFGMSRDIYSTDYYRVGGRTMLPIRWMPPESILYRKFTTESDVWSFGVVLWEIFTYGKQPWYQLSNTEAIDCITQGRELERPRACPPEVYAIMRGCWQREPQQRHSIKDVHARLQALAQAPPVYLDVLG
Structures can show the parent of a compound that is named as a salt.
Field: log10 IC50. Provide a value for each of the molecules that follow.
Each number you see is log10 of IC50, and the unit inside the log is nM.

Completed entries (count: 3):
1. COc1ccc(-c2cnc3c(c2)ncn3Cc2ccc(OC(C)c3ccc(OC)nc3)c(OC)c2)cn1 (centres unmarked) [Ex. 3-58-2, formate] ... 2.20
2. COc1ccc(COc2ccc(Cn3cnc4cc(N5CCC[C@H]5C(=O)O)cnc43)cc2OC)cn1 ... 0.90
3. COc1ccc(C(C)Oc2ccc(Cn3cnc4cc(-c5ccnn5C)cnc43)cc2OC)cn1 (centres unmarked) [Ex. 3-58-1, formate] ... 2.65

Need log10 IC50 for each of these molecules.
1. COc1ccc(COc2ccc(Cn3cnc4cc(-c5nnc(C6CCNCC6)o5)cnc43)cc2OC)cn1
2. COc1ccc(COc2ccc(Cn3c(N)nc4cc(-c5ccn(C)n5)cnc43)cc2OC)cn1
3. COc1ccc(COc2ccc(Cn3c(N)nc4cc(-c5cncnc5)ccc43)cc2OC)cc1
4. COc1ccc(COc2ccc(Cn3c(N)nc4cc(C#CCCO)cnc43)cc2OC)cn1

Solution:
1. 1.71
2. 0.48
3. 1.93
4. 0.85

Need log10 IC50 for each of these molecules.
1. COc1cc(Cn2c(N)nc3cc(-c4cnn(C)c4)cnc32)ccc1OCc1ccc(C(C)C)nc1
2. COc1ccc(COc2ccc(Cn3cnc4cc(N5CCC(N)CC5)ccc43)cc2OC)cn1
3. COc1ccc(COc2ccc(Cn3c(N)nc4cc(-c5ccc(P(C)(C)=O)nc5)cnc43)cc2OC)cc1
4. COc1ccc(COc2ccc(Cn3c(N)nc4cc(N5CCN(C)CC5)ccc43)cc2OC)cn1
5. COc1ccc(COc2ccc(Cn3c(N)nc4cc(-c5cncnc5)cnc43)cc2OC)cn1
6. COc1ccc(COc2ccc(Cn3cnc4cc(N5CCC(C(C)(C)N)CC5)ccc43)cc2OC)cn1

Solution:
-0.70
3.01
-0.30
2.77
1.71
2.81

Give log10 IC50 for each listed item.
1. COc1ccc(COc2ccc(Cn3c(N)nc4cc(-c5ccccn5)cnc43)cc2OC)cn1
2. COc1cc(Cn2c(N)nc3cc(-c4cnn(C)c4)cnc32)ccc1OCc1ccc(C(F)(F)F)cc1
3. COc1cc(Cn2c(N)nc3cc(-c4cnn(C)c4)cnc32)ccc1OCc1ccc(SC(F)(F)F)cc1

Solution:
[0.60, -0.70, -0.70]

Problem: Recorded log10 IC50 of COc1ccc(COc2ccc(Cn3c(N)nc4cc(-c5ccncc5)ccc43)cc2OC)cc1 , please.
Solution: 0.90

====

Molecular target: TrkB (Homo sapiens (Human), UniProt Q16620)
Sequence (Q16620 32-822): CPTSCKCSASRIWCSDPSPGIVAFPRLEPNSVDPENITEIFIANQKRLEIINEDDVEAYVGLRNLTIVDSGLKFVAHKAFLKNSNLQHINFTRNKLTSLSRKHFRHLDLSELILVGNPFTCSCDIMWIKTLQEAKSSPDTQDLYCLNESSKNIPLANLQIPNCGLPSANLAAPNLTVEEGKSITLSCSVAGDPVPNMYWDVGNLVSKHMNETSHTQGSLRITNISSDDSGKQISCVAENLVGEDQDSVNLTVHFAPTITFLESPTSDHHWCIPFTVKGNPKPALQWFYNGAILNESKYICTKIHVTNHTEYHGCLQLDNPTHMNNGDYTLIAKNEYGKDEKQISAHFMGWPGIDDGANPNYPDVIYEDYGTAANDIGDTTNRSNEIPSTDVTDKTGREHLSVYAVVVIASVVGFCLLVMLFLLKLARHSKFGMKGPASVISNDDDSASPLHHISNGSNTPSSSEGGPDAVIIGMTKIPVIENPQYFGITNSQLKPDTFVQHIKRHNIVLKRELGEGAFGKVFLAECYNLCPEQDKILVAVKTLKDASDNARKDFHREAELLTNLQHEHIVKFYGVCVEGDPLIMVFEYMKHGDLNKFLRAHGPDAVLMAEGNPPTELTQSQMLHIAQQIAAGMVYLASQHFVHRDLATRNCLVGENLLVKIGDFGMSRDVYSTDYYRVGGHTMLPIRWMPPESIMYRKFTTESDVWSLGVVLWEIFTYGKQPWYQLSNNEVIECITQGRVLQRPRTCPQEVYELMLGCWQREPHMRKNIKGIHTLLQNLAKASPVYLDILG
Assay: TrkB activity, off-chip mobility shift assay (LabChip 3000)
Assay type: biochemical
Settings: 70 μM ATP (ATP Km); n/d = none detected
Would you mind telling me the reported pIC50 of each entry?
One number for each entry, as −log10 of the molar value.

The cases that follow already have their pIC50 on record.
1) COc1ccc(COc2ccc(Cn3c(N)nc4cc(-c5ccc(F)cc5)cnc43)cc2OC)cn1 [Ex. 3-37-1] ... 8.40
2) COc1ccc(COc2ccc(Cn3cnc4cc(N5CCN(C)CC5)ccc43)cc2OC)cn1 [Ex. 3-13] ... 6.35
3) COc1ccc(COc2ccc(Cn3cnc4cc(N5CCN(C6CC6)CC5)cnc43)cc2OC)cn1 [Ex. 3-18-3] ... 7.28
4) COc1cc(Cn2c(N)nc3cc(-c4cnn(C)c4)cnc32)ccc1OCc1ccc(C2CC2)nc1 [Ex. 3-35-4] ... 9.70
5) COc1ccc(COc2ccc(Cn3cnc4cc(-c5nnc(C6CCNCC6)o5)cnc43)cc2OC)cn1 [Ex. 3-23] ... 7.24

Here are 3 molecules. What values of pIC50 were reported for them?
1. COc1ccc(COc2ccc(Cn3cnc4cc(N5CCC(N)CC5)cnc43)cc2OC)cn1 [Ex. 3-18-6]
2. COc1ccc(COc2ccc(Cn3c(N)nc4cc(-c5cncnc5)cnc43)cc2OC)cn1 [Ex. 3-37-3]
3. COc1cc(Cn2c(N)nc3cc(-c4cnn(C)c4)cnc32)ccc1OCc1ccc(CC(F)(F)F)cc1 [Ex. 3-40-4]

Solution:
1. 6.88
2. 7.80
3. 9.52

====

Field: pIC50. Provide a value for each of the compounds that follow.
Target: TrkB (Homo sapiens (Human))
Experiment: TrkB activity, off-chip mobility shift assay (LabChip 3000)
Format: biochemical
Settings: 70 μM ATP (ATP Km); n/d = none detected
Where a name gives a salt, the structure may show the parent alone.
Answers are plain numbers, as −log10 of the molar value.

Guide cases for pIC50, answers given:
1. COc1ccc(COc2ccc(Cn3c(N)nc4cc(-c5ccn(C)n5)cnc43)cc2OC)cn1 ... 8.70
2. COc1ccc(COc2ccc(Cn3cnc4cc(-n5cc(C6CCCNC6)nn5)cnc43)cc2OC)cn1 (stereo not drawn) ... 7.74
3. COc1ccc(COc2ccc(Cn3cnc4cc(-c5cnn(C6CCNCC6)c5)cnc43)cc2OC)cn1 ... 9.05
4. COc1ccc(COc2ccc(Cn3c(N)nc4cc(-c5cnn(C)c5)cnc43)cc2OC)cn1 ... 9.52
5. COc1ccc(COc2ccc(Cn3c(N)nc4cc(-c5ccncc5)ccc43)cc2OC)cc1 ... 8.40

Below is a list of compounds. For each, state its recorded pIC50.
1. COc1ccc(COc2ccc(Cn3c(N)nc4cc(-c5cnn(CCN6CCOCC6)c5)ccc43)cc2OC)cc1
2. COc1ccc(COc2ccc(Cn3cnc4cc(N5CCN6CCC5CC6)cnc43)cc2OC)cn1
3. COc1ccc(C(Oc2ccc(Cn3c(N)nc4cc(-c5cnn(C)c5)cnc43)cc2OC)C2CC2)cn1 (stereo not drawn)
4. COc1ccc(COc2ccc(Cn3c(N)nc4cc(-c5cnn(C)c5)ccc43)cc2OC)cc1
5. COc1ccc(COc2ccc(Cn3cnc4cc(-n5cc(C6CCCNC6)nn5)ccc43)cc2OC)cn1 (stereo not drawn)

Solution:
1: 9.00; 2: 6.46; 3: 7.29; 4: 9.30; 5: 7.07

# map each compound to its pIC50
1. COc1ccc(C(C)Oc2ccc(Cn3cnc4cc(-c5ccnc(F)c5)cnc43)cc2OC)cn1 (stereo not drawn) [Ex. 3-58-3, formate]
2. COc1ccc(COc2ccc(C(C)n3c(N)nc4cc(-c5cnn(C)c5)ccc43)cc2OC)cn1 (stereo not drawn)

Solution:
[7.17, 9.00]

Please state, for each entry, its recorded pIC50.
1. COc1ccc(COc2ccc(Cn3cnc4cc(C5CCNCC5)ccc43)cc2OC)cn1
2. COc1ccc(COc2ccc(Cn3c(N)nc4cc(-c5ccncc5)cnc43)cc2OC)cn1
3. COc1ccc(COc2cc(F)c(Cn3cnc4cc(N5CCN(C)CC5)ccc43)cc2OC)cn1
4. COc1cc(Cn2c(N)nc3cc(-c4cnn(C)c4)cnc32)ccc1OCc1ccc(C(F)(F)F)nc1
5. COc1ccc(COc2ccc(Cn3c(N)nc4cc(-c5ccc(P(C)(C)=O)nc5)ccc43)cc2OC)cc1

Solution:
1. 5.46
2. 9.15
3. 6.52
4. 9.70
5. 8.22

List pIC50 for every entry below, keeping the order given.
1. COc1cc(C(C)n2cnc3cc(-c4cnn(C)c4)ccc32)ccc1OCc1ccc(C(F)(F)F)nc1 (stereo not drawn)
2. COc1cc(C(C)n2c(N)nc3cc(C#CCCO)cnc32)ccc1OCc1ccc(C(F)(F)F)nc1 (stereo not drawn)
3. COc1ccc(COc2ccc(Cn3cnc4cc(N5CCC(C(C)(C)N)CC5)cnc43)cc2OC)cn1
4. COc1ccc(COc2ccc(Cn3cnc4cc(N5CCC(C(C)(C)N)CC5)ccc43)cc2OC)cn1
5. COc1ccc(COc2ccc(Cn3cnc4cc(N5CC6(CCNCC6)C5)ccc43)cc2OC)cn1
6. COc1ccc(COc2ccc(C(C)n3c(N)nc4cc(-c5ccc(F)cc5)ccc43)cc2OC)cn1 (stereo not drawn)

Solution:
1. 7.85
2. 9.00
3. 7.24
4. 6.24
5. 6.92
6. 7.43

Problem: Record COc1ccc(COc2ccc(Cn3c(N)nc4cc(-c5c(C)nn(C)c5C)cnc43)cc2OC)cn1 : what is its pIC50 with TrkB (Homo sapiens (Human))?
Solution: 7.89

Ref: patent US9067914B1
